Below, each entry is listed with its recorded hERG current change (%, negative = inhibition) at 10uM.
- measuredOn: human ether-à-go-go-related gene (hERG) potassium channel (human)
- Sequence (Q12809 whole entry, looked up): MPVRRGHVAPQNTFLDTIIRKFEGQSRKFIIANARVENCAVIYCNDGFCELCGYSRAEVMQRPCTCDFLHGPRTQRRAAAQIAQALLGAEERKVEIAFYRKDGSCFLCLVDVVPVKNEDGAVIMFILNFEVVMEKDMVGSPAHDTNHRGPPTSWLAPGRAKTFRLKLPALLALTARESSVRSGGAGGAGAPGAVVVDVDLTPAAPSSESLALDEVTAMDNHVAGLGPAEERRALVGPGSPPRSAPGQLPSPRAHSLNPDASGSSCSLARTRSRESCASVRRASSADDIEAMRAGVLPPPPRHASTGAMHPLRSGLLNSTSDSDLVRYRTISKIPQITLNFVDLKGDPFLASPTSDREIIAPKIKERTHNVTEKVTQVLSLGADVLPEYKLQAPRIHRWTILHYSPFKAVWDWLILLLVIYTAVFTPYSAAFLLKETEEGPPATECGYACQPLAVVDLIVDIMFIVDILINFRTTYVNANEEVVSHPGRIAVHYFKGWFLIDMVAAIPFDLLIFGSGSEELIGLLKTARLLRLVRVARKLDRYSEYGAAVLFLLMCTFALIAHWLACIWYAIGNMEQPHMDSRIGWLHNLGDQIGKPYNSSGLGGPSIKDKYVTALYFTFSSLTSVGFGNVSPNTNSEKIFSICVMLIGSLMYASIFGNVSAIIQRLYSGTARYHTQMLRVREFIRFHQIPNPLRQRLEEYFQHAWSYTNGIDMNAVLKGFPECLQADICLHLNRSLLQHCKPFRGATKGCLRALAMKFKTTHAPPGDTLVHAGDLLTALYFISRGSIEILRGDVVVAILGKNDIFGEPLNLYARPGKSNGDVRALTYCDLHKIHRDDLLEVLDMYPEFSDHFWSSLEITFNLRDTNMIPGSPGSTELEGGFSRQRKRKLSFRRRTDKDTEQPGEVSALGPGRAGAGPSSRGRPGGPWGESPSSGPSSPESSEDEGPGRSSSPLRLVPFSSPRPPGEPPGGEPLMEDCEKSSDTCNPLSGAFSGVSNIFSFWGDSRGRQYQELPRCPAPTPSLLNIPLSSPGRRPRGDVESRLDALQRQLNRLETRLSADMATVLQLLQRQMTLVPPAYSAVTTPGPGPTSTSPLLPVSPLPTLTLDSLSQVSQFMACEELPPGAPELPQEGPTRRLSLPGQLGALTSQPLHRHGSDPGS
- method: primary screen, population patch clamp on CHO cells stably expressing hERG; higher = less effect of the substance;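 also: peak tail current of the secondary pulse compared with the same well before compound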
About 14,000 (4.5%) of roughly 310,000 compounds showed an effect of 50% or more. Effects have a minus sign here. The sample holds strong results, similar compounds and a random draw of the others, so the mix is not that of the screen.
I only need the number, in %, no unit after it.

{"compound": "CN1CCN(CCNC(=O)Nc2ccccc2C(F)(F)F)CC1", "result": 3.26}
{"compound": "Cn1sc(NC(=O)c2ccc(Cl)cc2)nc1=O", "result": 7.93}
{"compound": "CCOC(=O)c1sc(=S)n(-c2ccccc2Cl)c1C", "result": -13.8}
{"compound": "CCn1c(SC(C)C(=O)NCC2CCCO2)nc2scc(-c3ccccc3)c2c1=O (stereo not drawn)", "result": -28.7}
{"compound": "C/C=C(\\C)C(=O)NCCN1C2=NC[C@@H](Cc3ccccc3)N2C[C@@H]1Cc1ccc(OC)cc1", "result": -60.3}

We now examine a further compound.
Q: Need hERG current change (%, negative = inhibition) at 10uM, item CC(=O)N1CCC2(CC1)CC(=O)c1cc(OCC(=O)N3CCOCC3)ccc1O2
Result: -10.6
